B1: STX5 (parent)
chain: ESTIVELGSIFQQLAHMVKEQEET

Variants of: B1
Assay: protein stability index of a GFP-peptide fusion (GPS, HEK-293T) (PSI 1-6); higher = more stable;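 further: lentivirally expressed fusions sorted by FACS into six bins by GFP to DsRed ratio, PSI derived from sequencing read proportions per bin multiplied by bin number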
Settings: c terminus: a fixed tail appended
# label = y if protein stability index >= 2 else n

sequenceInput: ESTIVELGSIFQQLAHMVKEMEET
labelValue: n
//
sequenceInput: ESTIVELGSIFQQLAHMVKEVEET
labelValue: n
//
sequenceInput: ESTIVELGKIFQQLAHMVKEQEET
labelValue: y
//
sequenceInput: ESTIVELGSIFQQLAHMVKEGEET
labelValue: y
//
sequenceInput: EVTIVELGSIFQQLAHMVKEQEET
labelValue: y
//
sequenceInput: ESTIVELGSIFQCLAHMVKEQEET
labelValue: y
//
sequenceInput: ESTIVELGSIFQQLAHMVQEQEET
labelValue: y
//
sequenceInput: EGTIVELGSIFQQLAHMVKEQEET
labelValue: n
//
sequenceInput: ESTIHELGSIFQQLAHMVKEQEET
labelValue: n
//
sequenceInput: ESTIVELGSIFQQLAHMVKEQGET
labelValue: n
//
sequenceInput: ESTIVELGSIFVQLAHMVKEQEET
labelValue: y
//
sequenceInput: SSTIVELGSIFQQLAHMVKEQEET
labelValue: n
